The reported measurements were obtained from patent US20230257449A1.

# Measurement target: H3 (A/Brisbane/10/2007) (influenza A virus H3 …)
# Assay overview: ELISA
Quantity measured: EC50 (nM)
Express the result in nM but write the number alone.

Worked examples, 3 binders total:
>  <Binder>
VH 10 / VL 4 (antibody, V domains shown) VH: QVQLVQSGAEVKKPGSSVKVSCKASGFTFSTYAIHWVRQAPGQGLEWMGVISYDANYKYYAQKFQGRVTITRDNSKSTAYMELSSLRSEDTAVYYCARDSRLRSLLYFEWLSQGYFDYWGQGTTLTVSS VL: DIVMTQSPDSLAVSLGERATINCKSSQSVTFDYKNYLAWYQQKPGQPPKLLIYWASTRESGVPDRFSGSGSGTDFTLTISSLQAEDVAVYYCQQHYRTPPSFGQGTKVEIK

>  <EC50 / nM>
0.0241

$$$$
>  <Binder>
VH 5 / VL 2 (antibody, V domains shown) VH: QVQLVESGGGVVQPGRSLRLSCAASGFTFSTYAMHWVRQAPGKGLEWVCVISYDANYKYYADSVKGRFTCSRDNSKNTLYLQMNSLRAEDTAVYYCARDSRLRSLLYFEWLSQGYFDYWGQGTLVTVSS VL: DIQMTQSPSSLSASVGDRVTITCRSSQSITFDYKNYLAWYQQKPGKAPKLLIYWGSSLQSGVPSRFSGSGSGTDFTLTISSLQPEDFATYYCQQHYRTPPSFGQGTKVEIK

>  <EC50 / nM>
0.0219

$$$$
>  <Binder>
VH 9 / VL 4 (antibody, V domains shown) VH: QVQLVQSGAEVKKPGSSVKVSCKASGFTFSTYAIHWVRQAPGQGLEWMGVISYDANYKYYAQKFQGRVTITRDNSKSTAYMELSSLRSEDTAVYYCAKDSQLRSLLYFEWLSQGYFDYWGQGTTLTVSS VL: DIVMTQSPDSLAVSLGERATINCKSSQSVTFDYKNYLAWYQQKPGQPPKLLIYWASTRESGVPDRFSGSGSGTDFTLTISSLQAEDVAVYYCQQHYRTPPSFGQGTKVEIK

>  <EC50 / nM>
0.0608

$$$$

// returns reported EC50 for input VH 8 / VL 6 (antibody, V domains shown) VH: EVQLLESGGGLVQPGGSLRLSCAASGFTFSSYAMHWVRQAPGKGLEWVAVISYDANYKYYADSVKGRFTISRDNSKNTLYLQMNSLRAEDTAVYYCAKDSRLRSLLYFEWLSQGYFDYWGQGTLVTVSS VL: EIVMTQSPATLSVSPGERATLSCRSSQSITFDYKNYLAWYQQKPGQAPRLLIYWGSTRATGIPARFSGSGSGTEFTLTISSLQSEDFAVYYCQQHYRTPPSFGQGTKVEIK 0.0261
